Entry source: paper PMC7180572

system: Escherichia coli ATCC 25922, CCM 3954; assay: Antibacterial microdilution broth method (EUCAST); assay type: cell-based; conditions: 24 h, read-out: MIC EC
Listed here are compounds together with their documented MIC.

Example entries begin here.
What does the data say about its MIC? Entry: CCCCCCNc1cnc(C(=O)Nc2ccc(C)cc2)cn1
> 500 µM

Okay, and CCCCCNc1cnc(C(=O)Nc2ccc(C)cc2)cn1 ?
> 500 µM

Okay, and CCCCCCCNc1cnc(C(=O)Nc2ccc(O)cc2)cn1 ?
> 500 µM

Proceed to the following item.
What does the data say about its MIC? Entry: CCCNc1cnc(C(=O)Nc2ccc(CC)cc2)cn1
> 125 µM
